- Method: Dissolution profiles of flupirtine acid addition salts in ethanol (compacted substance)
- Type: physicochemical
- Test parameters: 15 min; 100 mg compacted, 1000 ml ethanol, 37° C., basket 50 UpM
- Method: The dissolution in Ethanol was measured using compacted substance. 100 mg substance was compacted using a hydraulic press. Diameter of cake: 8.9 mm; pressure 20 kp/cm^2 for 15 sec. Liberation parameter: Basket, 50 UpM, 1000 ml medium 37° C. […] At given time points 5.0 ml solution were taken and measured vs. reference at 244 nm at a spectral photometer. […] The amount of liberated substance at given time points was calculated using a response factor (absorption/mg substance). […]
Each record here notes measured Amount of substance dissolved.
Lab book: enter the figure in mg, no units written.

Here is how some molecules turned out for Amount of substance dissolved.
* CCOC(=O)Nc1ccc(NCc2ccc(F)cc2)nc1N.O=C(O)/C=C\C(=O)O [Flupirtine maleate B, Flupirtine Maleate Form B, reference compound] | 12.1
* CC(=O)O.CCOC(=O)Nc1ccc(NCc2ccc(F)cc2)nc1N [Flupirtine acetate] | 103.0
* CCOC(=O)Nc1ccc(NCc2ccc(F)cc2)nc1N [Flupirtine propionate] | 110.3

**Query** Need Amount of substance dissolved of CCOC(=O)Nc1ccc(NCc2ccc(F)cc2)nc1N.O=C(O)/C=C\C(=O)O [Flupirtine maleate A, Flupirtine Maleate Form A, reference compound] , thanks.
**Result** 6.5

**Query** Again, but for CCOC(=O)Nc1ccc(NCc2ccc(F)cc2)nc1N.O=C(O)C(F)(F)F [Flupirtine triflutate, Flupirtine Triflutate]
**Result** 108.0
